Tested on: MDA-MB-468 breast
Experiment: NCI-60 one-dose screen, 48 h
Conditions: 10 µM unless noted
This is part of a sample that, as a whole, favours compounds with a hit. Of some 83,000 tested, about 20% had one in any assay. Calls of active or inactive are those of the source. The calls were made as follows: active = growth percent below 10; inactive = the rest.
The reply should be one of these categories: 1 (active), -1 (inactive)

- molecule: "COc1cc(Nc2ncccc2C(=O)NCc2cn(Cc3cccc(Oc4ccccc4)c3)nn2)cc(OC)c1"
  target system: "MDA-MB-468 breast"
  assigned class: -1

In: Could you please tell me the result logged for ClCCn1cnc2c(SCc3ccccc3)ncnc21 in this assay?
Out: -1

In: Could you please tell me the result logged for O=[N+]([O-])c1ccc(OCCO)cc1 in this assay?
Out: -1

In: Could you please tell me the result logged for O=C(NNc1nc(N2CCCC2)nc(N2CCCC2)n1)c1ccccc1 in this assay?
Out: -1

In: Could you please tell me the result logged for CC1=C(O)C(=O)C(C(C#N)(C#N)C(C#N)C#N)C1 (stereo not given) in this assay?
Out: -1

In: Could you please tell me the result logged for Nc1nc(N)c2c(n1)NC(c1cccc(Nc3ccnc4cc(C(F)(F)F)ccc34)c1)CC(c1ccccc1)=N2 (stereo not given) in this assay?
Out: -1

----------
Tested on: MDA-MB-468 breast
Assay: NCI-60 one-dose screen, 48 h
Conditions: 10 µM unless noted
The panel holds about 83,000 compounds, 20% with a hit somewhere; the sample as a whole holds those more often. Calls of active or inactive are those of the source. The calls were made as follows: active = growth percent below 10; inactive = the rest.
The reply should be one of these categories: true for active, false for inactive

- compound: "O=C(Nc1cccc(-n2ccc3c(NC(=O)c4ccccc4)nccc32)c1)c1ccc(Cl)c(Cl)c1"
  assigned class: "true"
- compound: "C/C(=C(/C)C1CC1CCNC1CCC(NC(=O)OC(C)(C)C)CC1)c1ccccc1 (centres undefined)"
  assigned class: "false"
- compound: "O=C1/C(=C/c2ccccc2Br)COc2ccc(O)c(O)c21"
  assigned class: "false"
- compound: "CC(C)C(C(=O)NCCN1CCOCC1)N1C(=O)/C(=C/c2ccc(Br)cc2)SC1=S (centres undefined)"
  assigned class: "false"
- compound: "ClC(Cl)c1nc(-c2cccs2)n2nc(-c3ccccc3)cc2n1"
  assigned class: "true"

In: Could you please tell me the result logged for CCCCN1CCN(c2ccc3nc(-c4ccc5nc(-c6ccc(OC)c(OC)c6)[nH]c5c4)[nH]c3c2)CC1 in this assay?
Out: true

In: Could you please tell me the result logged for COc1ccccc1CNc1nc(N)nc2[nH]c3ccc(O)cc3c12 in this assay?
Out: false

In: Could you please tell me the result logged for C/C(=C(/c1ccc(Cl)cc1)c1ccc(OCCN2CCCCC2)cc1)c1ccccc1 in this assay?
Out: false

In: Could you please tell me the result logged for CCN1CCCC(N2c3ccccc3Sc3ccccc32)C1 (centres undefined) in this assay?
Out: false

----------
Tested on: MDA-MB-468 breast
Assay: NCI-60 one-dose screen, 48 h (100 = growth as untreated, 0 = no growth, -100 = all killed)
Conditions: 10 µM unless noted
This is part of a sample that, as a whole, favours compounds with a hit. Of some 83,000 tested, about 20% had one in any assay.
So basically, if growth comes in under 30% it's 1 (yes), and if it's 30% or more it's 0 (no).

Recorded results for 5 molecules are shown here.
- molecule: "CCCCCCCCCCCCS(=O)CC(C)O (centres undefined)"
  assigned class: "0 (no)"
- molecule: "Cc1ccccc1/C=C1\\CN(C(=O)OC(C)(C)C)C/C(=C\\c2ccccc2C)C1=O"
  assigned class: "0 (no)"
- molecule: "CNC(=O)c1cc(N2CCc3cc(NC(=O)Nc4ccc(N5CCOCC5)c(C(F)(F)F)c4)ccc32)ccn1"
  assigned class: "0 (no)"
- molecule: "CCN(c1cc(-c2ccc(CN3CCC(/C=C/S(=O)(=O)c4ccccc4)CC3)cc2)cc(C(=O)NCc2c(C)cc(C)[nH]c2=O)c1C)C1CCOCC1"
  assigned class: "0 (no)"
- molecule: "N#CCCCCCn1c2ccccc2c2c3c(c4c5ccccc5[nH]c4c21)C(=O)N(O)C3=O"
  assigned class: "1 (yes)"

In: Hello, I'm reviewing records and need to know if growth of COC(=O)c1c2c(c(C)[n+]([O-])c1C)C(=O)C(NCc1ccc(Br)cc1)=CC2=O is below 30%. Could you check?
Out: 1 (yes)

In: Hello, I'm reviewing records and need to know if growth of Cc1ccccc1NC(=O)c1sc2nc(C)c(C(C)O)cc2c1N (centres undefined) is below 30%. Could you check?
Out: 0 (no)

In: Hello, I'm reviewing records and need to know if growth of Cc1ccc(NC(=O)c2nc(S(C)=O)oc2-c2ccc(F)cc2)cc1Nc1nccc(-c2cccnc2)n1 (centres undefined) is below 30%. Could you check?
Out: 1 (yes)

In: Hello, I'm reviewing records and need to know if growth of c1ccc2c(c1)ncn2-c1nc2ccccc2n2c1nc1ccccc12 is below 30%. Could you check?
Out: 1 (yes)

In: Hello, I'm reviewing records and need to know if growth of c1ccc2c(NCCCn3ccnc3)c3oc4ccccc4c3nc2c1 is below 30%. Could you check?
Out: 1 (yes)

In: Hello, I'm reviewing records and need to know if growth of CC(C)NC(=O)c1cc(-c2ccc(NC(=O)Nc3ccc(F)cc3)cc2)nc2cccnc12 is below 30%. Could you check?
Out: 0 (no)
